Consider the following substances; for each one, report its % UTC (Yap1 mRNA).
tested on: Yap1 mRNA; assay: Dose-dependent inhibition of human Yap1 in A-431 cells (Example 8, 10,000 cells per well, RTS4814); assay type: cell-based; conditions: 2000.00 nM; A-431 cells
Strand notation (5' to 3'): a small letter for the sugar, then the base; units joined by * are phosphorothioate-linked, units joined directly phosphodiester-linked; [ ] holds rarer units or linkages, { } end groups; capitals alone tell only the bases. k = constrained ethyl (cEt); [5mC] = 5-methylcytosine; d = 2'-deoxy (DNA)
Provide the reading as a plain figure in % UTC.

Return the recorded % UTC (Yap1 mRNA) value; entry: 1074678 (antisense kT*kA*kA*dT*d[5mC]*dT*dG*dT*dG*dG*d[5mC]*dT*dA*k[5mC]*kT*kG) [compound 1074678]
10

Recall and state the measured % UTC (Yap1 mRNA) for 1076119 (kG*kT*kT*dA*dA*dA*dT*dA*dT*dG*dA*dA*dT*kT*kG*kG; antisense) [compound 1076119] .
6

Fill in % UTC (Yap1 mRNA) for record 1074229 (antisense kG*kA*kA*dG*dA*d[5mC]*dT*dG*dT*d[5mC]*dG*dA*dA*kG*kA*kT) [compound 1074229]
5
